- System: LOX IMVI melanoma
- assay_explanation: NCI-60 one-dose screen, 48 h
- condition_info: 10 µM
About 83,000 compounds went through this panel and 20% of them were active in at least one assay; those are over-represented in the sample as a whole. Calls of active or inactive are those of the source. Rule for the calls: active = growth percent below 10; inactive = the rest. Starred links: 1 amine or outer side, 2 acyl side, 3 side chain; linkers in the order of their positions; H or OH if unused. Positions of bridges follow the written chain, without caps; N, C: chain ends. Non-standard residues stand in square brackets, D forms with d. Residues, ends and D or L forms follow the SMILES beside them. Chains are numbered I, II in the order given. Actinocin(9to1) = Cc1c2oc3c(C)ccc(C(=O)[*:1])c3nc-2c(C(=O)[*:2])c(N)c1=O; aThr = C[C@H](O)[C@H](N)C(=O)O; NMeV = CN[C@H](C(=O)O)C(C)C; Sar = CNCC(=O)O
The categories you may choose from are active, inactive

Outcome logged for CN(C)CCC(=O)c1c[nH]c2ccccc12 in this assay:
inactive

What would you report for CCCCCCCCCCCCCCCCCN ?
inactive

Also, Cc1cnc(/C=N\NC(N)=S)c2cccc(N)c12 please.
active

Moving on to the next compound: Cc1c2oc3c(C)ccc(C(=O)N[C@@H]4C(=O)N[C@H](C(C)C)C(=O)N5CCC[C@H]5C(=O)N(C)CC(=O)N(C)[C@@H](C(C)C)C(=O)O[C@H]4C)c3nc-2c(C(=O)N[C@@H]2C(=O)N[C@H](C(C)C)C(=O)N3CCC[C@H]3C(=O)N(C)CC(=O)N(C)[C@@H](C(C)C)C(=O)O[C@H]2C)c(N)c1=O (I: [aThr][dV]P[Sar][NMeV] / II: [aThr][dV]P[Sar][NMeV]; ester I:1-I:C, II:1-II:C; linker I:N-II:N via Actinocin(9to1))
active

And then S=c1[nH]nc(Cc2ccccc2)c(=S)[nH]1 , what is it?
inactive

Let us now turn to BrC/C=C/C[P+](c1ccccc1)(c1ccccc1)c1ccccc1
active

Now this one: O=C(/C(=C/c1ccccc1)CBr)c1ccccc1
inactive

Continue with COc1cc(C(C)(C)C)cc(OC)c1C(O)(c1c(OC)cc(C(C)(C)C)cc1OC)c1c(OC)cc(C(C)(C)C)cc1OC
active

* * *

- Tested on: MALME-3M melanoma
- assay_explanation: NCI-60 one-dose screen, 48 h (100 = growth as untreated, 0 = no growth, -100 = all killed)
- condition_info: 10 µM
About 83,000 compounds went through this panel and 20% of them were active in at least one assay; those are over-represented in the sample as a whole. Starred links: 1 amine or outer side, 2 acyl side, 3 side chain; linkers in the order of their positions; H or OH if unused. Positions of bridges follow the written chain, without caps; N, C: chain ends. Non-standard residues stand in square brackets, D forms with d. Residues, ends and D or L forms follow the SMILES beside them. Chains are numbered I, II in the order given. Actinocin(9to1) = Cc1c2oc3c(C)ccc(C(=O)[*:1])c3nc-2c(C(=O)[*:2])c(N)c1=O; aThr = C[C@H](O)[C@H](N)C(=O)O; NMeV = CN[C@H](C(=O)O)C(C)C; Sar = CNCC(=O)O
Please assign 0.0 whenever growth is at or above 60%, and 1.0 whenever it is below.

Strictly below 60%: is that where growth of Nc1ccc2cc(Br)c3ccccc3c2c1 sits?
0.0

What do we get for O=C(/C(=C/c1ccccc1)CBr)c1ccccc1 ?
0.0

Consider next the compound S=c1[nH]nc(Cc2ccccc2)c(=S)[nH]1 in the same way.
0.0

Lookup Cc1c2oc3c(C)ccc(C(=O)N[C@@H]4C(=O)N[C@H](C(C)C)C(=O)N5CCC[C@H]5C(=O)N(C)CC(=O)N(C)[C@@H](C(C)C)C(=O)O[C@H]4C)c3nc-2c(C(=O)N[C@@H]2C(=O)N[C@H](C(C)C)C(=O)N3CCC[C@H]3C(=O)N(C)CC(=O)N(C)[C@@H](C(C)C)C(=O)O[C@H]2C)c(N)c1=O (I: [aThr][dV]P[Sar][NMeV] / II: [aThr][dV]P[Sar][NMeV]; ester I:1-I:C, II:1-II:C; linker I:N-II:N via Actinocin(9to1))
1.0

Follow-up entry: Cc1cc(NCCCN(C)C)c2ccc3c(ccc4c(NCCCN(C)C)cc(C)nc43)c2n1
1.0
